Data origin: ChEMBL document CHEMBL4725471

biological target: Excitatory amino acid transporter 3 (Homo sapiens, UniProt P43005); assay: Inhibition of human EAAT3 transfected in HEK293 cells assessed as inhibition of [3H]-D-aspartate uptake incubated for 4 mins by TopCount scintillation counting analysis; assay type: cell-based
Sequence (P43005 whole entry): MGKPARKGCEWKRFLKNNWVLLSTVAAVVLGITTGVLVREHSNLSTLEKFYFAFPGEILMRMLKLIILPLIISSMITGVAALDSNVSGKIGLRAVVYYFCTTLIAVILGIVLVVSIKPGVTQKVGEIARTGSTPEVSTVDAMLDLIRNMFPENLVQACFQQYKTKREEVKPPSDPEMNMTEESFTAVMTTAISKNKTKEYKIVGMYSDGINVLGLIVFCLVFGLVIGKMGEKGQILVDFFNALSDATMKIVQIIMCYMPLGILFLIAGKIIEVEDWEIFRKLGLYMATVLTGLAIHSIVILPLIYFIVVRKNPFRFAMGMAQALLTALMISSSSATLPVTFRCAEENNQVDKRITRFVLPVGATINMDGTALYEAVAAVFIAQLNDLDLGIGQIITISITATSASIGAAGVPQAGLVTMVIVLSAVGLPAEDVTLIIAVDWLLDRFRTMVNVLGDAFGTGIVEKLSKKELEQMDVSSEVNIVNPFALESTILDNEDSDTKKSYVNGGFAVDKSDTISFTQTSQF
recorded.endpoint: IC50 (µM)

- Cc1ccc(S(=O)(=O)n2cc(-c3ccsc3)c3ccc(CO[C@H](C(=O)O)[C@H](N)C(=O)O)cc32)cc1: 8.9
- Cc1ccc(S(=O)(=O)n2ccc3ccc(CO[C@H](C(=O)O)[C@H](N)C(=O)O)cc32)cc1: 18
- NC(C(=O)O)C(OCc1ccccc1)C(=O)O (racemic): 5.1
- Cc1ccc(S(=O)(=O)n2cc(-c3ccccc3)c3ccc(CO[C@H](C(=O)O)[C@H](N)C(=O)O)cc32)cc1: 30
- Cc1ccc(S(=O)(=O)n2cc(-c3ccc(C(F)(F)F)cc3)c3ccc(CO[C@H](C(=O)O)[C@H](N)C(=O)O)cc32)cc1: 7.6
